# Tested on: MDA-MB-468 breast
# METHOD DESCRIPTION: NCI tumour cell line growth inhibition, 48 h
Would you mind telling me the reported GI50 of each entry?

Some solved entries appear below for comparison.
CCCCCCCCCCCCCCCCCCOP(=O)([O-])OC1CC[N+](C)(C)CC1 ... 3740 nM
CC1=C(SCCC(=O)OCC(=O)NCCC[Te]c2ccccc2)C(=O)c2ccccc2C1=O ... 1810 nM
CC(C)(O)c1coc(S(=O)(=O)/N=C(\O)Nc2c3c(cc4c2CCC4)CCC3)c1 ... > 100000 nM

Go through the items and report each one's GI50.
1. CC(=O)OCC1OC(OC2=C(CC=C(C)C)C(=O)c3ccccc3C2=O)C(OC(C)=O)C(OC(C)=O)C1OC(C)=O (centres undefined)
2. Nc1ccc2c(c1)Cc1cc(Cl)c(Cl)cc1-2
3. NC(=O)c1cccc(-n2ccc3cc(NC(=O)Nc4ccc(N5CCOCC5)c(C(F)(F)F)c4)ccc32)n1
4. COc1ccc(C2=C(c3cn(C)c4ccccc34)C(=O)NC2=O)cc1

1: 1580 nM; 2: 1360 nM; 3: 2440 nM; 4: 9840 nM

Go through the items and report each one's GI50.
1. CCOC(=O)c1ccc2c(c1)c1c(C)c3ccncc3c(C)c1n2C
2. CC(C)(C)c1[nH]nc2c1C(c1cc3ccccc3[nH]c1=O)Nc1cc(C(=O)Nc3ccc(Cl)cc3)ccc1N2 (centres undefined)

1: 1160 nM; 2: 1360 nM

---

# Test system: MDA-MB-468 breast
# METHOD DESCRIPTION: NCI tumour cell line growth inhibition, 48 h
Binning of TGI into classes: class 0 = under 0.9 µM, class 1 = from 0.9 µM up to 4 µM, class 2 = 4 µM and over

Exercise: read the entry `O=C(N/N=C/c1ccc(Cl)s1)c1[nH]c2ccc(Br)cc2c1-c1ccccc1` and state which class it falls under.
class 2

---

# Tested on: MDA-MB-468 breast
# METHOD DESCRIPTION: NCI tumour cell line growth inhibition, 48 h
Binning of TGI into classes: low (below 0.8 µM), medium (0.8 µM to below 5 µM), high (5 µM or more)

Examples from the recorded data:
COc1ccc2c(CCC(c3ccccc3)c3ccccc3)c3[n+](cc2c1OC)CCc1cc2c(cc1-3)OCO2 ... low
CCOC(=O)c1cc(C(=O)c2ccc(Cl)cc2)n2ccc(-c3cc[n+](CC(=O)c4ccc(OC)cc4)cc3)cc12 ... medium
CCOC(=O)c1c(NCC(=O)Nc2cccc([N+](=O)[O-])c2)sc(C(C)=O)c1C ... medium
CCCCCCCCCCCCC[N+](C)(C)Cc1ccccc1 ... medium
CC1(C)CCC(S(=O)(=O)c2ccc3c(c2)/C(=N\O)c2cc(S(=O)(=O)N4CCN(c5ccc(F)cc5O)CC4)ccc2-3)CC1 ... low
O=C(O)c1ccc(-c2ccc(/C=N/NC(=O)c3[nH]c4ccc(Br)cc4c3-c3ccccc3)s2)cc1 ... high

Exercise: read the entry `c1cc(N2CCCC2)c2nc(-c3[nH]ncc3Nc3ncnc4[nH]ccc34)[nH]c2c1` and state which class it falls under.
low

Exercise: read the entry `Nc1ccc2c(c1)Cc1cc(Cl)c(Cl)cc1-2` and state which class it falls under.
high

Exercise: read the entry `CCN(CC)c1ccc(N=O)cc1` and state which class it falls under.
medium

Exercise: read the entry `CN(C)c1ccc2nc3ccc(=N)cc-3sc2c1` and state which class it falls under.
high

Exercise: read the entry `O=C1/C(=C\c2ccc(Br)cc2)CN(C(=O)c2ccccc2F)C/C1=C\c1ccc(Br)cc1` and state which class it falls under.
medium
